Reported F values follow for various compounds
- System: Rattus norvegicus
- assay.text: Oral bioavailability in Sprague-Dawley rat at 25 mg/kg by LC-MS/MS method
- Type: ADME, organism-based
- run.parameters: in vivo
Numeric only. Scale: %

Before answering, review these 3 worked examples.
>  <compound.structure.string>
CCN(CC)CC.O=C(NS(=O)(=O)NC[C@H]1O[C@@H](n2cnc3c(NC4CC4)ncnc32)[C@H](O)[C@@H]1O)c1ccccc1O

>  <target.or.test.system>
Rattus norvegicus

>  <F (%)>
1

$$$$
>  <compound.structure.string>
CCN(CC)CC.Nc1ncnc2c1ncn2[C@@H]1O[C@H](CNS(=O)(=O)NC(=O)c2ccccc2O)[C@@H](O)[C@H]1O

>  <target.or.test.system>
Rattus norvegicus

>  <F (%)>
3.5

$$$$
>  <compound.structure.string>
CCN(CC)CC.Nc1ncnc2c1ncn2[C@@H]1O[C@H](COS(=O)(=O)NC(=O)c2ccccc2O)[C@@H](O)[C@H]1O

>  <target.or.test.system>
Rattus norvegicus

>  <F (%)>
1.3

$$$$

Could you now consider this next compound?
Q) State recorded F with Rattus norvegicus, entry CCN(CC)CC.O=C(NS(=O)(=O)NC[C@H]1O[C@@H](n2cnc3c(NC4CC4)nc(-c4ccccc4)nc32)[C@H](O)[C@@H]1O)c1ccccc1O , no comment.
A) 0.3
